Biological target: Thrombopoietin receptor (Homo sapiens) (UniProt P40238)
Sequence (whole entry): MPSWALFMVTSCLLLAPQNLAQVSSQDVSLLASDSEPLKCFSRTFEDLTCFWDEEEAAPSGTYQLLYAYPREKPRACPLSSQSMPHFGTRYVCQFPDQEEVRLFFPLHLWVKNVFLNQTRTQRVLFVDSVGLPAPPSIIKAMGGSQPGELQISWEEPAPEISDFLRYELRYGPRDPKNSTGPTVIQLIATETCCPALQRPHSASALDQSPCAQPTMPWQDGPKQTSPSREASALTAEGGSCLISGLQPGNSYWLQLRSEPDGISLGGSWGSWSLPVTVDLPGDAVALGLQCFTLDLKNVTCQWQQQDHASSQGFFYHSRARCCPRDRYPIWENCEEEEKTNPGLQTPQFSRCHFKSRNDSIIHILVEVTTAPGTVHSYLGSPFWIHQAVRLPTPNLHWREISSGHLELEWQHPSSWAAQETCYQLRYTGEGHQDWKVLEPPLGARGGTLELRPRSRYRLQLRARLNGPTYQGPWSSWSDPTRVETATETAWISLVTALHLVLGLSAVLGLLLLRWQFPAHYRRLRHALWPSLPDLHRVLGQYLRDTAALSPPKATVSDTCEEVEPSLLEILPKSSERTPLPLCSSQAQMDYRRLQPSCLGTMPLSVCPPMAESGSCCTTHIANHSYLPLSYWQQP
Assay: Thrombopoietin luciferase activity in BAF-3 cells
Type: cell-based
Details: BaF3
observed.property: Efficacy (%)

The compound Cc1ccc(-n2[nH]c(-c3ccccc3)c(/N=N/c3c(O)cc(S(=O)(=O)O)c4ccccc34)c2=O)cc1C , when measured on Thrombopoietin receptor (Homo sapiens) (UniProt P40238), yielded Efficacy of 92

The compound Cc1[nH]n(-c2cccc([N+](=O)[O-])c2)c(=O)c1/N=N/c1c(O)cc(S(=O)(=O)O)c2ccccc12 , when measured on Thrombopoietin receptor (Homo sapiens) (UniProt P40238), yielded Efficacy of 28

The compound Cc1ccc(-n2[nH]c(C)c(/N=N/c3c(O)cc(C(=O)O)c4ccccc34)c2=O)cc1C , when measured on Thrombopoietin receptor (Homo sapiens) (UniProt P40238), yielded Efficacy of 24

The compound Cc1[nH]n(-c2ccccc2Cl)c(=O)c1/N=N/c1c(O)cc(S(=O)(=O)O)c2ccccc12 , when measured on Thrombopoietin receptor (Homo sapiens) (UniProt P40238), yielded Efficacy of 6

The compound O=S(=O)(O)c1cc(O)c(/N=N/c2c(O)c3ccccc3c3ccccc23)c2ccccc12 , when measured on Thrombopoietin receptor (Homo sapiens) (UniProt P40238), yielded Efficacy of 61

A = O=S(=O)(O)c1cc(O)c(/N=N/c2c(O)ccc3cc(O)ccc23)c2ccccc12
B = Cc1[nH]n(-c2ccc(C(F)(F)F)cc2)c(=O)c1/N=N/c1c(O)cc(S(=O)(=O)O)c2ccccc12
Asked: Could you check which of A and B has a smaller value for Efficacy? Please indicate the selected item by its label.
Given back: A

---

molecular target: Thrombopoietin receptor (Homo sapiens, UniProt P40238); assay: Effective concentration for thrombopoietin luciferase activity was determined in BAF-3 cells
pEC50: −log10 of the molar value.
observed.property: pEC50

I = Cc1cccc(-n2[nH]c(C)c(/N=N/c3c(O)cc(S(=O)(=O)O)c4ccccc34)c2=O)c1
II = CCOC(=O)c1[nH]n(-c2ccc(C(C)(C)C)cc2)c(=O)c1/N=N/c1c(O)cc(S(=O)(=O)O)c2ccccc12
Asked: Could you check which of I and II has a smaller value for pEC50? Please indicate the selected item by its label.
Given back: II
(II: 5.70, I: 6.15)

---

target: Thrombopoietin receptor (Homo sapiens); experiment: Thrombopoietin luciferase activity in BAF-3 cells; assay type: cell-based; settings: BaF3
observed.property: Efficacy

For orientation, consider the following solved cases.
Short answer for O=S(=O)(O)c1cc(O)c(/N=C/c2c(O)ccc3ccccc23)c2ccccc12 : Efficacy was < 5%

Short answer for Cc1[nH]n(-c2cc(S(=O)(=O)O)ccc2Cl)c(=O)c1/N=N/c1c(O)cc(S(=O)(=O)O)c2ccccc12 : Efficacy was < 5%

Short answer for O=S(=O)(O)c1cc(O)c(NCc2c(O)ccc3ccccc23)c2ccccc12 : Efficacy was < 5%

Short answer for Cc1[nH]n(-c2ccc(S(=O)(=O)O)cc2)c(=O)c1/N=N/c1c(O)cc(S(=O)(=O)O)c2ccccc12 : Efficacy was < 5%

Short answer for Cc1[nH]n(Cc2ccccc2)c(=O)c1/N=N/c1c(O)cc(S(=O)(=O)O)c2ccccc12 : Efficacy was 32%

Attention now turns to another entry.
Short answer for O=S(=O)(O)c1cc(O)c(/N=N/c2ccc(O)c3ccc(O)cc23)c2ccccc12 : Efficacy was < 5%

---

molecular target: Thrombopoietin receptor (Homo sapiens, UniProt P40238); test: Effective concentration for thrombopoietin luciferase activity was determined in BAF-3 cells
pEC50: −log10 of the molar value.
observed.property: pEC50

For orientation, consider the following solved cases.
Short answer for Cc1[nH]n(-c2ccc(Cl)c(Cl)c2)c(=O)c1/N=N/c1c(O)cc(S(=O)(=O)O)c2ccccc12 : pEC50 was 6.70

Short answer for Cc1[nH]n(-c2ccccc2)c(=O)c1/N=N/c1c(O)cc(C(=O)O)c2ccccc12 : pEC50 was 5.30

Short answer for Cc1[nH]n(-c2ccccn2)c(=O)c1/N=N/c1c(O)cc(S(=O)(=O)O)c2ccccc12 : pEC50 was 5.15

a = O=C(O)c1cc2ccccc2c(/N=N/c2c(O)cc(S(=O)(=O)O)c3ccccc23)c1O
b = O=S(=O)(O)c1cc(O)c(/N=N/c2c(O)cc(O)c3ccccc23)c2ccccc12
Asked: Could you check which of a and b has a smaller value for pEC50? Please indicate the selected item by its label.
Given back: a

I = O=S(=O)(O)c1cc(O)c(/N=N/c2c(O)c3ccccc3c3ccccc23)c2ccccc12
II = Cc1ccc(-n2[nH]c(-c3ccccc3)c(/N=N/c3c(O)cc(S(=O)(=O)O)c4ccccc34)c2=O)cc1C
Asked: Could you check which of I and II has a smaller value for pEC50? Please indicate the selected item by its label.
Given back: II

a = CCOc1nn(-c2ccc(C)c(C)c2)c(O)c1/N=N/c1c(O)cc(S(=O)(=O)O)c2ccccc12
b = O=S(=O)(O)c1cc(O)c(/N=N/c2c(O)ccc3cc(O)ccc23)c2ccccc12
Asked: # argmax over pEC50 for candidates a and b Please indicate the selected item by its label.
Given back: a
(a: 6.22, b: 5.70)

---

target: Thrombopoietin receptor (Homo sapiens) (UniProt P40238); assay: Thrombopoietin luciferase activity in BAF-3 cells; type: cell-based; conditions: BaF3
observed.property: Efficacy (%)

For orientation, consider the following solved cases.
The compound CC(C)(C)c1ccc(-n2[nH]c(N)c(/N=N/c3c(O)cc(S(=O)(=O)O)c4ccccc34)c2=O)cc1 , when measured on Thrombopoietin receptor (Homo sapiens) (UniProt P40238), yielded Efficacy of 87

The compound CCOc1nn(-c2ccc(C)c(C)c2)c(O)c1/N=N/c1c(O)cc(S(=O)(=O)O)c2ccccc12 , when measured on Thrombopoietin receptor (Homo sapiens) (UniProt P40238), yielded Efficacy of 80

The compound Cc1[nH]n(-c2ccc(I)cc2)c(=O)c1/N=N/c1c(O)cc(S(=O)(=O)O)c2ccccc12 , when measured on Thrombopoietin receptor (Homo sapiens) (UniProt P40238), yielded Efficacy of 81

P = COc1ccc2ccc(O)c(/N=N/c3c(O)cc(S(=O)(=O)O)c4ccccc34)c2c1
Q = Cc1[nH]n(-c2ccccc2)c(=O)c1/N=N/c1c(O)cc(S(=O)(=O)O)c2ccccc12
Asked: Could you check which of P and Q has a smaller value for Efficacy? Please indicate the selected item by its label.
Given back: Q

---

Biological target: Thrombopoietin receptor (Homo sapiens)
Sequence (P40238 whole entry): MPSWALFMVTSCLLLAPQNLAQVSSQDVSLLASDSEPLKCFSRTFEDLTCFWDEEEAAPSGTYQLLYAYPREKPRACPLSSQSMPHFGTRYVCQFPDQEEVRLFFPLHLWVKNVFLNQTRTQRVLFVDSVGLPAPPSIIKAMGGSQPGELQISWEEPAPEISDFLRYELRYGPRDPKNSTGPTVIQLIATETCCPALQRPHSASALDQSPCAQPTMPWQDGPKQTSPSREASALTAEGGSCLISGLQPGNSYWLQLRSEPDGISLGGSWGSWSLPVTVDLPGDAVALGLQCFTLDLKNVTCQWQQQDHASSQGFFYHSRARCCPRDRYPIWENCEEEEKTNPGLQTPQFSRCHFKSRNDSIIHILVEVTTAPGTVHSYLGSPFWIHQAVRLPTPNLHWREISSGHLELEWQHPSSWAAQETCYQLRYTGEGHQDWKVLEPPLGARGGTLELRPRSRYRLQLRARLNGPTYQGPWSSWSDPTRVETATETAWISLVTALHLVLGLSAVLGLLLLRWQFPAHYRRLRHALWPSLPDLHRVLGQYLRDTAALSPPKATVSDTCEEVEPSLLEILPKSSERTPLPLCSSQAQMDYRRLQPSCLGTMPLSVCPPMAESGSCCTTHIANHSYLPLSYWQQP
Test: Effective concentration for thrombopoietin luciferase activity was determined in BAF-3 cells
pEC50: −log10 of the molar value.
observed.property: pEC50

Short answer for Cc1[nH]n(-c2ccc(S(C)(=O)=O)cc2)c(=O)c1/N=N/c1c(O)cc(S(=O)(=O)O)c2ccccc12 : pEC50 was 5.52

Short answer for Cc1[nH]n(-c2cccc([N+](=O)[O-])c2)c(=O)c1/N=N/c1c(O)cc(S(=O)(=O)O)c2ccccc12 : pEC50 was 6.52

Short answer for COc1cc(O)c2ccccc2c1/N=N/c1c(O)cc(S(=O)(=O)O)c2ccccc12 : pEC50 was 5.52

Short answer for Cc1[nH]n(-c2cccc(C(F)(F)F)c2)c(=O)c1/N=N/c1c(O)cc(S(=O)(=O)O)c2ccccc12 : pEC50 was 7.40

A = Cc1[nH]n(-c2ccc([N+](=O)[O-])cc2)c(=O)c1/N=N/c1c(O)cc(S(=O)(=O)O)c2ccccc12
B = Cc1ccc(-n2[nH]c(C)c(/N=N/c3c(O)cc(S(=O)(=O)O)c4ccccc34)c2=O)cc1C
C = Cc1ccccc1-n1[nH]c(C)c(/N=N/c2c(O)cc(S(=O)(=O)O)c3ccccc23)c1=O
D = O=S(=O)(O)c1cc(O)c(/N=N/c2ccc3ccccc3c2O)c2ccccc12
E = Cc1ccc(-n2[nH]c(C)c(/N=N/c3c(O)cc(C(=O)O)c4ccccc34)c2=O)cc1
Asked: Form: Sort by [pEC50] Order [ ascending ] Give the labels in the order specified.
Given back: C, E, A, D, B
